# testSystem: T5L-TRPM2 (Homo sapiens, UniProt O94759, G984L/INS985E/Y985D)
# Sequence (O94759 whole entry, stated change not applied): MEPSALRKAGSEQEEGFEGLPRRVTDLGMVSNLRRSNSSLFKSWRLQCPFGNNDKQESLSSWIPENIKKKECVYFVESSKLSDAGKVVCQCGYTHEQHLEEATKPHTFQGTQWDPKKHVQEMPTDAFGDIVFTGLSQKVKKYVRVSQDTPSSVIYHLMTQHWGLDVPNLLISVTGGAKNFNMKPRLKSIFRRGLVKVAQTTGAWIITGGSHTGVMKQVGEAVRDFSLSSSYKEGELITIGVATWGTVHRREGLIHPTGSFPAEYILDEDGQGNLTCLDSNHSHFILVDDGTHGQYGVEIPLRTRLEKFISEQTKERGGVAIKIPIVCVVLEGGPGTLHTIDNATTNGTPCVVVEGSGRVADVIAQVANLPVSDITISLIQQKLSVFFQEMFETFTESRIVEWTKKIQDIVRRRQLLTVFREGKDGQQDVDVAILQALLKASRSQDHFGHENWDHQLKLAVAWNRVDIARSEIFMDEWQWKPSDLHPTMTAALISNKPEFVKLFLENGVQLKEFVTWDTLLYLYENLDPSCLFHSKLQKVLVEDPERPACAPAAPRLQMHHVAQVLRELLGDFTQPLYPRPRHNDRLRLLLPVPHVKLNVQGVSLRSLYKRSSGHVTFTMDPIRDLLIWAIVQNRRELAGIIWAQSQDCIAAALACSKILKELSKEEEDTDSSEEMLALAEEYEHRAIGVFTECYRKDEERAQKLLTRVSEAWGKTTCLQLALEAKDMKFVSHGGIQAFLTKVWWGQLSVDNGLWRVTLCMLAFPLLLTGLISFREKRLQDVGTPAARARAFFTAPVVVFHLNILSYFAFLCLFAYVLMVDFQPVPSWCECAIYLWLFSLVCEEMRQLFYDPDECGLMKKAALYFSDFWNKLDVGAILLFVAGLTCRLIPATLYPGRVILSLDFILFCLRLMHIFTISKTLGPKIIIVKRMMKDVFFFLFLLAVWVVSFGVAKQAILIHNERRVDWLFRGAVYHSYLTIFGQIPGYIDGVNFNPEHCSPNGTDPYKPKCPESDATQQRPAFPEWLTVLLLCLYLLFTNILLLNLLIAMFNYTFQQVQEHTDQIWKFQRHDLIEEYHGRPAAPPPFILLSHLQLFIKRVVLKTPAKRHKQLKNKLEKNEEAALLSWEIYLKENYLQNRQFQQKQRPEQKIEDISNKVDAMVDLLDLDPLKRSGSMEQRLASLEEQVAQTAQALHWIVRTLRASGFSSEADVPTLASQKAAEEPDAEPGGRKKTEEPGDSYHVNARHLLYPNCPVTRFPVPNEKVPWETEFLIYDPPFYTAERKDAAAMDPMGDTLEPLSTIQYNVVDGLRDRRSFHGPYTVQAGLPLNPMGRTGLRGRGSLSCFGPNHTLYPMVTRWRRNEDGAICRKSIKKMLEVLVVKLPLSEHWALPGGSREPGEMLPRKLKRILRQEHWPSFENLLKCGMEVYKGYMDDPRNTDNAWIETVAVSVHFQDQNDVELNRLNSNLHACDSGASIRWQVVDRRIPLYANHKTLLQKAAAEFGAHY
# testDetails: Excised inside-out patch-clamp recordings, ADPR-dependent channel activation
# measurementSetup: right-shift of ADPR dose response in the presence of 100 μM ε-ADPR, competitive fit; read-out: KI (Kε-ADPR) for binding to native NUDT9H
quantityKind: Ki
State the result as a value with its unit after it.

Report Ki for O=P(O)(OC[C@H]1OC(O)[C@H](O)[C@@H]1O)OP(=O)(O)OC[C@H]1O[C@@H](n2cnc3c2ncn2ccnc32)[C@H](O)[C@@H]1O (stereo partly shown) [ε-ADPR] please.
112 µM
